- Test system: BT-549 breast
- ASSAY_NAME: NCI-60 one-dose screen, 48 h (100 = growth as untreated, 0 = no growth, -100 = all killed)
- RUN_CONDITIONS: 10 µM unless noted
About 83,000 compounds went through this panel and 20% of them were active in at least one assay; those are over-represented in the sample as a whole.
READOUT_KIND: growth (%)
Entry rule: numbers only, all in %.

Solved cases (8 shown):
- MOLECULE: "C=CC(=O)Nc1cccc(-c2nc(SC)nc(NCc3ccccc3)c2C#N)c1"
  UNITS_SYMBOL: "%"
  growth: 44.3
- MOLECULE: "N#C/C(=C\\c1ccc(-c2ccc(Cl)c(Cl)c2)o1)c1nc(-c2ccco2)cs1"
  UNITS_SYMBOL: "%"
  growth: 109
- MOLECULE: "O=C(NCCN1CCOCC1)Nc1ccc(-c2cc3c(Nc4ccc(Oc5cccc(C(F)(F)F)c5)c(Cl)c4)ncnc3s2)cc1"
  UNITS_SYMBOL: "%"
  growth: 40
- MOLECULE: "CC(=O)c1cc(C(=O)c2ccc3c(c2)Sc2ccccc2N3)n2ccccc12"
  UNITS_SYMBOL: "%"
  growth: 45.8
- MOLECULE: "Cc1ccc(/C=C2\\SC(=S)N(CC(=O)NCCCN3CCOCC3)C2=O)cc1"
  UNITS_SYMBOL: "%"
  growth: 102
- MOLECULE: "COc1ccc(C2CC(c3ccc(Cl)cc3)=NN2/C=C2\\SC(=S)N(NC(=O)Cc3ccccc3Nc3c(Cl)cccc3Cl)C2=O)cc1 (centres undefined)"
  UNITS_SYMBOL: "%"
  growth: 79
- MOLECULE: "CCNC(=O)Oc1ccc(/C(=C(\\C)c2ccc(Cl)cc2)c2ccc(OCCN(CC)CC)cc2)cc1"
  UNITS_SYMBOL: "%"
  growth: 68.8
- MOLECULE: "CNc1ccc(-c2cc(=O)oc3ccc(Cl)cc23)cc1"
  UNITS_SYMBOL: "%"
  growth: 21.8

Please turn your attention to the following entry.
Record for `COc1ccc(-c2nc(SCC(=O)Nc3ccc(C(=O)/C=C/c4ccc(Cl)cc4)cc3)[nH]c(=O)c2C#N)cc1` under target or system BT-549 breast: growth reported as 84
